B1: minF1; a variant is named by its letters at N, in order (parent)
chain: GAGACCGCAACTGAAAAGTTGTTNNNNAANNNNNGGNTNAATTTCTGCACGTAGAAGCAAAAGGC

Variants of: B1
Assay comment: fraction ligated after 30 min (ligated reads / total reads); higher = more ligase activity
Condition parameters: with F1*subA RNA substrate (template-directed ligation), 42 °C
Reported fraction ligated values for a set of variants
// response body must contain only the number

{"Sequence string": "GAGACCGCAACTGAAAAGTTGTATCAAATGGATGGGTTGAATTTCTGCACGTAGAAGCAAAAGGC [TCAAGGATGTG T23A A29T]", "fraction ligated": 0.00621}

Inquiry: Name the reported fraction ligated value associated with the variant GAGACCGCAACTGAAAAGTTGTATCGAAATGGAGGGTTGAATTTCTGCACGTAGAAGCAAAAGGC [TCGATGGAGTG T23A]
Reply text: 0.00843

Inquiry: Name the reported fraction ligated value associated with the variant GAGACCGCAACTGAAAAGTTGTTATCAAAATGGAGGGTTAATTTCTGCACGTAGAAGCAAAAGGC [ATCAATGGAGT]
Reply text: 0.00569

Inquiry: Name the reported fraction ligated value associated with the variant GAGACCGCAACTGAAAAGTTGTTACAGAAAGGAGGGTTGAATTTCTGCACGTAGAAGCAAAAGGC [ACAGAGGAGTG]
Reply text: 0.00131
